Values were extracted from patent US11873291B2.

Reported IC50 values for a set of compounds
tested.on: recombinant human cGAS (aa147-522) (Homo sapiens)
Construct: recombinant human cGAS (aa147-522); His6-SUMO (cleaved yes); made in house; host or cells: E. coli BL21/pLys
Sequence (Q8N884 147-522): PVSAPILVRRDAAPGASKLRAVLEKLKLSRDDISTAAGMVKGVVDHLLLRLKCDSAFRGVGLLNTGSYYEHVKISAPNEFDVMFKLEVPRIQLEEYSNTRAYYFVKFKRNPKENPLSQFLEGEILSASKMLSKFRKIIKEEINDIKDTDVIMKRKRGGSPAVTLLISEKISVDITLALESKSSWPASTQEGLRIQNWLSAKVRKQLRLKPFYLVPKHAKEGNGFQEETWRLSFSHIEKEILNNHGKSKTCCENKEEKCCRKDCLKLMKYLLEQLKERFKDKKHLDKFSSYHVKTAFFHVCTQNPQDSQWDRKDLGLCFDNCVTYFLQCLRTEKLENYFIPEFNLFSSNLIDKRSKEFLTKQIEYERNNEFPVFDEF
assay.notes: In vitro inhibition assay of cGAS activity (ATP consumption, KinaseGlo Max)
Format: biochemical
setup.conditions: Table 3, read-out: cGAS Inhibition Results IC50

Known IC50 results, listed for orientation:
compound: O=C(O)C12CC(Nc3cc(-n4ccnc4)c4ccc(Cl)c(Cl)c4n3)(C1)C2
tested.on: recombinant human cGAS (aa147-522) (Homo sapiens)
reported.value: < 2000 nM
--
compound: O=C(O)[C@H]1[C@H](O)CCN1c1cc(-n2ccnc2)c2ccc(Cl)c(Cl)c2n1
tested.on: recombinant human cGAS (aa147-522) (Homo sapiens)
reported.value: 2000 to 30000 nM

Supply IC50 value. Item: O=C(O)c1cccc(CNc2cc(-n3ccnc3)c3ccc(Cl)c(Cl)c3n2)c1 < 2000 nM

Supply IC50 value. Item: Nc1ccc(-c2cc(N3CCC[C@H]3COCCC(=O)O)nc3c(Cl)c(Cl)ccc23)cn1 > 30000 nM

Supply IC50 value. Item: CC(C)(C)OC(=O)[C@H]1CCCN1C(=O)C[C@@H]1CCCN1c1cc(-n2ccnc2)c2ccc(Cl)c(Cl)c2n1 2000 to 30000 nM

Supply IC50 value. Item: CN(CCNS(=O)(=O)CCC(=O)O)c1cc(-n2ccnc2)c2ccc(Cl)c(Cl)c2n1 < 2000 nM

Supply IC50 value. Item: CO[C@@H]1CCN(c2cc(-n3ccnc3)c3ccc(Cl)c(Cl)c3n2)[C@@H]1C(=O)O < 2000 nM

Supply IC50 value. Item: C[C@@H]1C[C@@H](C(=O)O)N(c2cc(-n3ccnc3)c3ccc(Cl)c(Cl)c3n2)C1 < 2000 nM

Supply IC50 value. Item: CCCCOC(=O)[C@@H]1[C@@H](O)CCN1c1cc(-n2ccnc2)c2ccc(Cl)c(Cl)c2n1 2000 to 30000 nM

Supply IC50 value. Item: O[C@H]([C@@H]1CCCN1c1cc(-n2ccnc2)c2ccc(Cl)c(Cl)c2n1)C(F)(F)F < 2000 nM

Supply IC50 value. Item: COC(=O)COC[C@@H]1CCCN1c1cc(-n2ccnc2)c2ccc(Cl)c(Cl)c2n1 < 2000 nM

Supply IC50 value. Item: O=C(O)c1cccn1-c1cc(-n2ccnc2)c2ccc(Cl)c(Cl)c2n1 2000 to 30000 nM

Supply IC50 value. Item: CN(CCS(=O)(=O)NCC(=O)O)c1cc(-n2ccnc2)c2ccc(Cl)c(Cl)c2n1 < 2000 nM
